- ASSAY_SYSTEM: Eukaryotic translation initiation factor 4E (Oryctolagus cuniculus) (UniProt P29338)
- Sequence (P29338 whole entry): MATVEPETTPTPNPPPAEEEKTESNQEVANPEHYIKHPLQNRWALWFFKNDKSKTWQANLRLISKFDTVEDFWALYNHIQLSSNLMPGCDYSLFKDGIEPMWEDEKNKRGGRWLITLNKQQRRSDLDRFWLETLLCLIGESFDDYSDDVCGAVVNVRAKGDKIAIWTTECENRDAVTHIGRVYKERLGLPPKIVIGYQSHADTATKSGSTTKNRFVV
- TEST_SUMMARY: Inhibition of eIF4E-mediated mRNA translation in rabbit reticulocyte lysate assessed as translation efficiency after 60 mins by luciferase reporter gene assay relative to m7GpppG-capped mRNA
READOUT_NAME: fold change (FC)

Example compounds with recorded fold change (FC):
CO[C@@H]1[C@H](O)[C@@H](COP(=O)(O)CP(=O)(O)OP(=O)([O-])OP(=O)(O)OC[C@H]2O[C@@H](n3cnc4c(=O)[nH]c(N)nc43)[C@H](O)[C@@H]2O)O[C@H]1n1c[n+](C)c2c(O)nc(N)nc21 ... 1.5
CO[C@@H]1[C@H](O)[C@@H](COP(=O)([O-])OP(=O)([O-])NP(=O)([O-])OC[C@H]2O[C@@H](n3cnc4c(=O)[nH]c(N)nc43)[C@H](O)[C@@H]2O)O[C@H]1n1c[n+](C)c2c(=O)[nH]c(N)nc21.[Na+].[Na+] ... 1.11

Note: attention shifts to another entry.
Query :: Determine from records and report fold change (FC) for Nc1nc2c(ncn2[C@@H]2O[C@H](COP(=O)(O)OP(=O)(O)OP(=O)(O)OC[C@H]3O[C@@H](n4cnc5c(N)ncnc54)[C@H](O)[C@@H]3O)[C@@H](O)[C@H]2O)c(=O)[nH]1
Result :: 0.18

###

- ASSAY_SYSTEM: UniProt P06730
- Sequence (P06730 whole entry): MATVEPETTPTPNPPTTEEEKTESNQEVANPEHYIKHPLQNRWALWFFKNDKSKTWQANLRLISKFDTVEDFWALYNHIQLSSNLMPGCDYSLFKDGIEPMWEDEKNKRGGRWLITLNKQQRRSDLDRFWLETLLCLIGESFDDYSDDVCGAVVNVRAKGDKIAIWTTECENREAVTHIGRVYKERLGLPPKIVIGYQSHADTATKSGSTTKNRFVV
- TEST_SUMMARY: Binding affinity to recombinant eIF4E by fluorescence quenching titration method
READOUT_NAME: Ka (µM⁻¹)
Give the value, in units of µM⁻¹, as a plain number.

In the examples that follow, each entry is paired with its recorded Ka.
C[n+]1cn([C@@H]2O[C@H](COP(=O)(O)CP(=O)(O)OP(=O)([O-])OC[C@H]3O[C@@H](n4cnc5c(=O)[nH]c(N)nc54)[C@H](O)[C@@H]3O)[C@@H](O)[C@H]2O)c2nc(N)nc(O)c21 ... 6.3
C[n+]1cn([C@@H]2O[C@H](COP(=O)([O-])NP(=O)([O-])OP(=O)([O-])OP(=O)([O-])OC[C@H]3O[C@@H](n4cnc5c(=O)[nH]c(N)nc54)[C@H](O)[C@@H]3O)[C@@H](O)[C@H]2O)c2nc(N)[nH]c(=O)c21.[Na+].[Na+].[Na+] ... 112
CO[C@@H]1[C@H](O)[C@@H](COP(=O)([O-])OP(=O)([O-])OP(=O)([O-])NP(=O)([O-])OC[C@H]2O[C@@H](n3cnc4c(=O)[nH]c(N)nc43)[C@H](O)[C@@H]2O)O[C@H]1n1c[n+](C)c2c(=O)[nH]c(N)nc21.[Na+].[Na+].[Na+] ... 132
CO[C@@H]1[C@H](O)[C@@H](COP(=O)([O-])NP(=O)(O)OP(=O)(O)OP(=O)(O)OC[C@H]2O[C@@H](n3cnc4c(=O)[nH]c(N)nc43)[C@H](O)[C@@H]2O)O[C@H]1n1c[n+](C)c2c(=O)[nH]c(N)nc21.N.N.N ... 125
C[n+]1cn([C@@H]2O[C@H](COP(=O)([O-])NP(=O)(O)OP(=O)(O)OC[C@H]3O[C@@H](n4cnc5c(=O)[nH]c(N)nc54)[C@H](O)[C@@H]3O)[C@@H](O)[C@H]2O)c2nc(N)[nH]c(=O)c21.N.N ... 14.6
C[n+]1cn([C@@H]2O[C@H](COP(=O)(O)OP(=O)(O)OP(=O)([O-])OP(=O)(O)OC[C@H]3O[C@@H](n4cnc5c(=O)[nH]c(N)nc54)[C@H](O)[C@@H]3O)[C@@H](O)[C@H]2O)c2nc(N)nc(O)c21 ... 111
C[n+]1cn([C@@H]2O[C@H](COP(=O)([O-])OP(=O)([O-])NP(=O)([O-])OC[C@H]3O[C@@H](n4cnc5c(=O)[nH]c(N)nc54)[C@H](O)[C@@H]3O)[C@@H](O)[C@H]2O)c2nc(N)[nH]c(=O)c21.[Na+].[Na+] ... 10.1
C[n+]1cn([C@@H]2O[C@H](COP(=O)(O)OP(=O)([O-])OP(=O)(O)OC[C@H]3O[C@@H](n4cnc5c(=O)[nH]c(N)nc54)[C@H](O)[C@@H]3O)[C@@H](O)[C@H]2O)c2nc(N)nc(O)c21 ... 12.5
CO[C@@H]1[C@H](O)[C@@H](COP(=O)([O-])OP(=O)([O-])NP(=O)([O-])OC[C@H]2O[C@@H](n3cnc4c(=O)[nH]c(N)nc43)[C@H](O)[C@@H]2O)O[C@H]1n1c[n+](C)c2c(=O)[nH]c(N)nc21.[Na+].[Na+] ... 10.4

Next compound, Ka to be filled in.
Query :: Report value: Ka, system: UniProt P06730, compound: CO[C@@H]1[C@H](O)[C@@H](COP(=O)(O)OP(=O)([O-])OP(=O)(O)OC[C@H]2O[C@@H](n3cnc4c(=O)[nH]c(N)nc43)[C@H](O)[C@@H]2O)O[C@H]1n1c[n+](C)c2c(O)nc(N)nc21
Result :: 10.8
